Source listed as the supplement of paper PMC11451515.

# System: SEM cells
# test-name: cell viability relative to DMSO control; higher = less cytotoxic
# test-conditions: RPMI 5 mM glucose + 10% FBS; 48 h; 0.00702 µM
value-type: cell viability (%)

[[record]]
compound = "OCCN(CCO)c1nc(N2CCCCC2)c2nc(N(CCO)CCO)nc(N3CCCCC3)c2n1"
units_text = "%"
endpoint_value = 118

[[record]]
compound = "N[C@@H](Cc1ccc(O)c(O)c1)C(=O)O"
units_text = "%"
endpoint_value = 107

[[record]]
compound = "CO[C@@H]1[C@@H](O)[C@H](O)[C@@H](n2c3c(Cl)cccc3c3c4c(c5c6cccc(Cl)c6[nH]c5c32)C(=O)NC4=O)O[C@H]1CO"
units_text = "%"
endpoint_value = 113

[[record]]
compound = "Cc1nc(N)ncc1-c1nc(N2CCOCC2)c2sc(C(C)(C)O)cc2n1"
units_text = "%"
endpoint_value = 78.2

[[record]]
compound = "N#CC[C@H](C1CCCC1)n1cc(-c2ncnc3[nH]ccc23)cn1"
units_text = "%"
endpoint_value = 86.6

[[record]]
compound = "CCOC(=O)[C@H]1O[C@@H]1C(=O)N[C@@H](CC(C)C)C(=O)NCCC(C)C"
units_text = "%"
endpoint_value = 102

[[record]]
compound = "CC(C)CC(N(C)C)C1(c2ccc(Cl)cc2)CCC1 (centres undefined)"
units_text = "%"
endpoint_value = 118

[[record]]
compound = "NCCc1ccc(O)c(O)c1"
units_text = "%"
endpoint_value = 123

[[record]]
compound = "Cc1c(C(=O)c2cccc3ccccc23)c2cccc3c2n1[C@H](CN1CCOCC1)CO3"
units_text = "%"
endpoint_value = 71.3


---

Recorded cell viability values for a group of molecules are listed next.
# Test system: NOMO1
# test-name: cell viability relative to DMSO control; higher = less cytotoxic
# test-conditions: RPMI 5 mM glucose + 10% dialyzed FBS; 48 h; 0.00234 µM
value-type: cell viability (%)

[[record]]
molecule = "CCOC(=O)[C@@H](N)CCC(=O)N[C@@H](CSCc1ccccc1)C(=O)N[C@@H](C(=O)OCC)c1ccccc1"
endpoint_value = 116

[[record]]
molecule = "CS[C@H]1SC[C@@H]2C(=O)N(C)[C@H](C(C)C)C(=O)OC[C@H](NC(=O)c3cnc4ccccc4n3)C(=O)N[C@H](C)C(=O)N(C)[C@H]1C(=O)N(C)[C@H](C(C)C)C(=O)OC[C@H](NC(=O)c1cnc3ccccc3n1)C(=O)N[C@H](C)C(=O)N2C"
endpoint_value = 81.1

[[record]]
molecule = "COC(=O)[C@H](c1ccccc1Cl)N1CCc2sccc2C1"
endpoint_value = 90.5

[[record]]
molecule = "O=C(NCc1ccccc1)c1csc(Nc2ccncn2)n1"
endpoint_value = 95

[[record]]
molecule = "Cc1cnc(Nc2ccc(N3CCN(C)CC3)cc2)nc1Nc1cccc([S+](=O)([O-])NC(C)(C)C)c1"
endpoint_value = 113

[[record]]
molecule = "Nc1nc(NCCNc2ncc(-n3ccnc3)c(-c3ccc(Cl)cc3Cl)n2)ccc1[N+](=O)[O-]"
endpoint_value = 128

[[record]]
molecule = "C[C@H](Cc1ccc(O)c(O)c1)[C@@H](C)Cc1ccc(O)c(O)c1"
endpoint_value = 121

[[record]]
molecule = "Cn1cnc([N+](=O)[O-])c1Sc1ncnc2nc[nH]c12"
endpoint_value = 96.7

[[record]]
molecule = "CN(C(Cc1ccc(O[S+](=O)([O-])c2cccc3cnccc23)cc1)C(=O)N1CCN(c2ccccc2)CC1)[S+](=O)([O-])c1cccc2cnccc12 (centres undefined)"
endpoint_value = 97.7

[[record]]
molecule = "CCCCCN(CCC12CC3CC(CC(C3)C1)C2)C(=O)NCCCc1ccncc1"
endpoint_value = 102

[[record]]
molecule = "N#CC[C@H](C1CCCC1)n1cc(-c2ncnc3[nH]ccc23)cn1"
endpoint_value = 102

[[record]]
molecule = "OCCN(CCO)c1nc(N2CCCCC2)c2nc(N(CCO)CCO)nc(N3CCCCC3)c2n1"
endpoint_value = 115

[[record]]
molecule = "COc1cc2ncn(-c3cc(OCc4ccccc4C(F)(F)F)c(C(N)=O)s3)c2cc1OC"
endpoint_value = 122

[[record]]
molecule = "C1CN\\2C[C@@H](\\N=C2S1)C3=CC=CC=C3"
endpoint_value = 88.8


---

Quick reference for cell viability among some compounds
# System: SEM cells
# test-name: cell viability relative to DMSO control; higher = less cytotoxic
# test-conditions: RPMI 5 mM glucose + 10% FBS; 48 h; 5.12 µM
value-type: cell viability (%)

[[record]]
compound = "C[C@]\\12CCC(=O)\\C=C1[C@@H]3C[C@@H]3[C@@H]4[C@@H]2CC[C@@]5(C)[C@H]4[C@@H]6C[C@@H]6[C@@]57CCC(=O)O7"
value_type = "cell viability"
endpoint_value = 119

[[record]]
compound = "N[C@@H](Cc1ccc(O)c(O)c1)C(=O)O"
value_type = "cell viability"
endpoint_value = 126

[[record]]
compound = "COC(=O)Nc1nc2ccc([S+]([O-])c3ccccc3)cc2[nH]1 (centres undefined)"
value_type = "cell viability"
endpoint_value = 89.6

[[record]]
compound = "CC(C)Cn1cnc2c(N)nc3ccccc3c21"
value_type = "cell viability"
endpoint_value = 111

[[record]]
compound = "Oc1ccc2ccccc2c1SSc1c(O)ccc2ccccc12"
value_type = "cell viability"
endpoint_value = 104

[[record]]
compound = "C1COC(NC(C2CC2)C2CC2)=N1"
value_type = "cell viability"
endpoint_value = 75.6

[[record]]
compound = "O=[S+]([O-])(NCCNC/C=C/c1ccc(Br)cc1)c1cccc2cnccc12"
value_type = "cell viability"
endpoint_value = 62.5

[[record]]
compound = "CCCCCN(CCC12CC3CC(CC(C3)C1)C2)C(=O)NCCCc1ccncc1"
value_type = "cell viability"
endpoint_value = 96.9

[[record]]
compound = "C[N]1C=C(C=N1)C2=CC=C3N=CC\\4=C(N(C(=O)\\C=C4)C5=CC6=C(CCN6C(=O)C=C)C=C5)C3=C2"
value_type = "cell viability"
endpoint_value = 26.6

[[record]]
compound = "N=C(N)NC(=N)N1CCOCC1"
value_type = "cell viability"
endpoint_value = 71.2

[[record]]
compound = "CC(C)[N+]1(C)C2CCC1CC(OC(=O)C(CO)c1ccccc1)C2.O.[Br-] (centres undefined)"
value_type = "cell viability"
endpoint_value = 85.9

[[record]]
compound = "CCOC(=O)O[C@]1(C(=O)OCCl)CC[C@H]2[C@@H]3CCC4=CC(=O)C=C[C@]4(C)[C@H]3[C@@H](O)C[C@@]21C"
value_type = "cell viability"
endpoint_value = 107

[[record]]
compound = "Nc1ccc([S+](=O)([O-])Nc2ncccn2)cc1"
value_type = "cell viability"
endpoint_value = 126

[[record]]
compound = "C[C@H](Cc1ccc(O)c(O)c1)[C@@H](C)Cc1ccc(O)c(O)c1"
value_type = "cell viability"
endpoint_value = 128


---

# System: NOMO1
# test-name: cell viability relative to DMSO control; higher = less cytotoxic
# test-conditions: HPLM + 10% dialyzed FBS; 48 h; 1.71 µM
In this section, each of the molecules is paired with its reported cell viability.
value-type: cell viability (%)

[[record]]
molecule = "COC(=O)C/1=C(C)/N/C(=C(\\C1C2=CC(=CC=C2)[N+]([O-])=O)C(=O)OCCCN3CCC(CC3)(C4=CC=CC=C4)C5=CC=CC=C5)C (centres undefined)"
tgt = "NOMO1"
endpoint_value = 107

[[record]]
molecule = "Oc1ccc([C@@H]2Oc3ccc(O)cc3[C@@H]3CCC[C@@H]32)cc1"
tgt = "NOMO1"
endpoint_value = 94.2

[[record]]
molecule = "CC[C@H]1CN2CCc3cc(OC)c(OC)cc3[C@@H]2C[C@@H]1C[C@H]1NCCc2cc(OC)c(OC)cc21"
tgt = "NOMO1"
endpoint_value = 22.7

[[record]]
molecule = "COc1ccc2[nH]cc(CCNC(C)=O)c2c1"
tgt = "NOMO1"
endpoint_value = 119

[[record]]
molecule = "N=C(N)NC(=N)N1CCOCC1"
tgt = "NOMO1"
endpoint_value = 103

[[record]]
molecule = "Nc1ccc([S+](=O)([O-])Nc2ncccn2)cc1"
tgt = "NOMO1"
endpoint_value = 138

[[record]]
molecule = "NNc1nncc2ccccc12"
tgt = "NOMO1"
endpoint_value = 139

[[record]]
molecule = "CCCCCCCCCCCC/1=C(O)/C(=O)/C=C(O)\\C1=O"
tgt = "NOMO1"
endpoint_value = 39.4

[[record]]
molecule = "CCCCCN(CCC12CC3CC(CC(C3)C1)C2)C(=O)NCCCc1ccncc1"
tgt = "NOMO1"
endpoint_value = 93.7


---

# Tested on: P12-Ichikawa
# test-name: cell viability relative to DMSO control; higher = less cytotoxic
# test-conditions: RPMI 5 mM glucose + 10% FBS; 48 h; 0.000781 µM
Parameter cell viability: see the listing below.
value-type: cell viability (%)

[[record]]
molecule = "Cn1cnc([N+](=O)[O-])c1Sc1ncnc2nc[nH]c12"
value_type = "cell viability"
endpoint_value = 81.8

[[record]]
molecule = "C[N]1C=C(C=N1)C2=CC=C3N=CC\\4=C(N(C(=O)\\C=C4)C5=CC6=C(CCN6C(=O)C=C)C=C5)C3=C2"
value_type = "cell viability"
endpoint_value = 123

[[record]]
molecule = "O=C(NCC1CCOCC1)c1cnc(Nc2ccc(Cl)cc2Cl)nc1C(F)(F)F"
value_type = "cell viability"
endpoint_value = 100

[[record]]
molecule = "Nc1ccc([S+](=O)([O-])Nc2ncccn2)cc1"
value_type = "cell viability"
endpoint_value = 115

[[record]]
molecule = "Oc1c(Cl)cc(Cl)c2cccnc12"
value_type = "cell viability"
endpoint_value = 100

[[record]]
molecule = "N=C(N)NC(=N)N1CCOCC1"
value_type = "cell viability"
endpoint_value = 103

[[record]]
molecule = "COc1cc2c(Nc3ccc(Cl)c(Cl)c3F)ncnc2cc1OC[C@@H]1C[C@@H]2CN(C)C[C@@H]2C1"
value_type = "cell viability"
endpoint_value = 95.3

[[record]]
molecule = "C[C@@H](N)C1CC[C@@H](CC1)C(=O)NC2=CC=NC=C2 (stereo partly specified)"
value_type = "cell viability"
endpoint_value = 117

[[record]]
molecule = "CCOC(=O)O[C@]1(C(=O)OCCl)CC[C@H]2[C@@H]3CCC4=CC(=O)C=C[C@]4(C)[C@H]3[C@@H](O)C[C@@]21C"
value_type = "cell viability"
endpoint_value = 95.9

[[record]]
molecule = "COc1cc2ncn(-c3cc(OCc4ccccc4C(F)(F)F)c(C(N)=O)s3)c2cc1OC"
value_type = "cell viability"
endpoint_value = 117

[[record]]
molecule = "CN(C)CCc1c[nH]c2ccc(C[S+](=O)([O-])N3CCCC3)cc12"
value_type = "cell viability"
endpoint_value = 106

[[record]]
molecule = "C1COC(NC(C2CC2)C2CC2)=N1"
value_type = "cell viability"
endpoint_value = 89.2

[[record]]
molecule = "C1CN\\2C[C@@H](\\N=C2S1)C3=CC=CC=C3"
value_type = "cell viability"
endpoint_value = 96.3

[[record]]
molecule = "COc1cc(OC)c(C(=O)CCCN2CCCC2)c(OC)c1"
value_type = "cell viability"
endpoint_value = 119

[[record]]
molecule = "Cc1nc(N)ncc1-c1nc(N2CCOCC2)c2sc(C(C)(C)O)cc2n1"
value_type = "cell viability"
endpoint_value = 116

[[record]]
molecule = "CCOCC(O)COc1ccc(NC(=O)CC[S+](C)C)cc1 (stereo unspecified)"
value_type = "cell viability"
endpoint_value = 88.2

